Source of measurements: paper PMC5146284

- System under test: RAMP1/CLR CGRP receptor heterodimer in HEK293FT reporter cells (Homo sapiens, UniProt O60894+Q16602)
- Construct: HA-CALCRL: Human calcitonin receptor-like receptor preceded by the H. influenza; Human receptor-activity modifying protein 1 preceded by the H. influenza; hemagglutinin signal peptide (heterologous, replaces the native one) (N); expressed in transfected cells
- Sequence (Q16602 23-461): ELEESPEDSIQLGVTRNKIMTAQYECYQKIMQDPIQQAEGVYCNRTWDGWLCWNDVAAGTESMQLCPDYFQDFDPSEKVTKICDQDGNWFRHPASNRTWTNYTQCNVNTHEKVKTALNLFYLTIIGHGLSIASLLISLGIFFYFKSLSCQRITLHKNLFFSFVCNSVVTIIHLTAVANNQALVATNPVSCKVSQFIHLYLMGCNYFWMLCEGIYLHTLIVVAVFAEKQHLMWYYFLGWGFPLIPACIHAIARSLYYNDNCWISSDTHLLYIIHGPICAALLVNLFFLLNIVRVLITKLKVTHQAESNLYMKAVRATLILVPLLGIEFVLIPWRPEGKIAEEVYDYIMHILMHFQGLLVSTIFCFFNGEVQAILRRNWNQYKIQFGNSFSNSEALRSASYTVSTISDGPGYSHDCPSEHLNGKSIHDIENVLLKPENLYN
- Sequence (O60894 27-148): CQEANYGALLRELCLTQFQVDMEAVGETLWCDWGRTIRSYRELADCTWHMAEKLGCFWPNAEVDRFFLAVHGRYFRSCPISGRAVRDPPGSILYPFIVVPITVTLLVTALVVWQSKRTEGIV
- Assay info: Luminescent cAMP (GloSensor) cell-based bioassay for CGRP receptor activation
- Applied conditions: uncleaved CASP3 sensor; read-out: EC50 before cleavage
Positions of bridges follow the written chain, without caps; N, C: chain ends. *: point of attachment. long‑chain biotin = O=C(CCCC[C@@H]1SC[C@@H]2NC(=O)N[C@@H]21)NCCCCCC(=O)*
Property: pEC50
API: returns pEC50 as number; meaning -log10 of concentration in mol/L.

Field pEC50 (entry (long-chain biotin)-SG-DEVD-CGRP-amide (disulfide) ({long‑chain biotin}-SGDEVDACDTATCVTHRLAGLLSRSGGVVKNNFVPTNVGSKAF-NH2; disulfide 8-13) [Sensor (5)] ) reads 8.24
